Recorded IC50 for the following molecules
Molecular target: GSK3b (GST-full length GSK3b) (Homo sapiens (Human), UniProt P49841)
Sequence (P49841 whole entry): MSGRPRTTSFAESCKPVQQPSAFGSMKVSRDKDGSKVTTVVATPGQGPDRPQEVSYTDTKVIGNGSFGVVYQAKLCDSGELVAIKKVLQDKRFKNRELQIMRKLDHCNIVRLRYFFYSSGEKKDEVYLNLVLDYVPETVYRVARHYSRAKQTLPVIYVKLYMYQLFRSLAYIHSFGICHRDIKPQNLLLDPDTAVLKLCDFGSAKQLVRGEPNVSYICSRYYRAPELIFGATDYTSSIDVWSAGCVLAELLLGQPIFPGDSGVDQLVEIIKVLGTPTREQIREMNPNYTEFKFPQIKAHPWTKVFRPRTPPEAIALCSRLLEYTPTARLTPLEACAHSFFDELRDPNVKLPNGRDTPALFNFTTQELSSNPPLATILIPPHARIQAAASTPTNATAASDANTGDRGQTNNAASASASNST
Assay: GSK3b TR-FRET kinase assay
Type: biochemical
Settings: 1 nM GSK3b, 2 μM ATP, 30 minute preincubation; read-out: GSK3-B TR-FRET BIOCHEMICAL (TR-FRET); IC50

- molecule: "CCC1(c2cccc(C(F)(F)F)c2)C2=C(Nc3n[nH]cc31)C(C)NC2=O (stereo not shown) [Compound 945379]"
  IC50: "1000 to 5000 nM"
- molecule: "CC1(C)CC(=O)C2=C(C1)Nc1n[nH]cc1C21COC2(CN(C(=O)C3(C)CC(F)C3)C2)C1 (stereo not shown)"
  IC50: "100 to 1000 nM"
- molecule: "CC1(C)CC(=O)C2=C(C1)Nc1n[nH]cc1[C@@]21COC2(CCC2)C1"
  IC50: "100 to 1000 nM"
- molecule: "CC1(C)CC(=O)C2=C(C1)Nc1n[nH]cc1C21COC2(CN(C(=O)C3CC3(F)F)C2)C1 (stereo not shown)"
  IC50: "≤ 100 nM"
- molecule: "CC1(C)CC(=O)C2=C(C1)Nc1n[nH]cc1C21COC2(CN(C(=O)C3CCOCC3)C2)C1 (stereo not shown)"
  IC50: "100 to 1000 nM"
- molecule: "CCC1(c2cccc(C(F)(F)F)c2)C2=C(CCN(c3ccc(OC)cc3)C2=O)Nc2n[nH]cc21 (stereo not shown)"
  IC50: "100 to 1000 nM"
- molecule: "CCC1(c2cccc(-c3c(C)nn(C)c3C)c2)C2=C(CC(C)(C)NC2=O)Nc2n[nH]c(C)c21 (stereo not shown)"
  IC50: "≤ 100 nM"
- molecule: "CC1(C)CC(=O)C2=C(C1)Nc1n[nH]cc1C21CCC2(CC2)CC1"
  IC50: "≤ 100 nM"
- molecule: "CCC1(c2ccccc2)C2=C(CSCC2=O)Nc2n[nH]cc21 (stereo not shown)"
  IC50: "> 5000 nM"
- molecule: "CC1(C)CC(=O)C2=C(C1)Nc1n[nH]cc1C21COC2(CN(C(=O)C(C)(C)C)C2)C1 (stereo not shown)"
  IC50: "≤ 100 nM"
- molecule: "CCC1(c2cccc(C(F)(F)F)c2)C2=C(Nc3n[nH]cc31)C(C)CNC2=O (stereo not shown) [Compound 945382]"
  IC50: "100 to 1000 nM"
- molecule: "CCC1(c2cccc(-c3ccnc(C)c3)c2)C2=C(CC(C)(C)NC2=O)Nc2n[nH]cc21 (stereo not shown) [Compound 914930]"
  IC50: "1000 to 5000 nM"
- molecule: "CCC1(c2cccc(-c3ccnc(C)c3)c2)C2=C(CC(C)(C)NC2=O)Nc2n[nH]cc21 (stereo not shown) [Compound 927325]"
  IC50: "100 to 1000 nM"
- molecule: "CC[C@]1(c2cccc(C(F)(F)F)c2)C2=C(C[C@H](C)NC2=O)Nc2n[nH]cc21"
  IC50: "> 5000 nM"
- molecule: "CC1(C)CC2=C(C(=O)N1)C1(CCN(S(=O)(=O)C3CCCC3)CC1)c1c[nH]nc1N2"
  IC50: "≤ 100 nM"
- molecule: "CC1(C)CC(=O)C2=C(C1)Nc1n[nH]cc1C21COC2(CN(C(=O)C3CCCC3)C2)C1 (stereo not shown) [Compound 917232]"
  IC50: "≤ 100 nM"
